- target: chimeric α2α1 GlyR (Rattus norvegicus, UniProt P07727+P22771, A288G/A330S/F348L/L351F/V274I)
- Construct: Relevance of the ECD for the subunit-specific actions of gelsemine on α1GlyRs; fusion partner: GlyR α1 transmembrane and C-terminal part (Glra1, printed Q546L7)
- Sequence (P22771+P07727 fused with the stated changes): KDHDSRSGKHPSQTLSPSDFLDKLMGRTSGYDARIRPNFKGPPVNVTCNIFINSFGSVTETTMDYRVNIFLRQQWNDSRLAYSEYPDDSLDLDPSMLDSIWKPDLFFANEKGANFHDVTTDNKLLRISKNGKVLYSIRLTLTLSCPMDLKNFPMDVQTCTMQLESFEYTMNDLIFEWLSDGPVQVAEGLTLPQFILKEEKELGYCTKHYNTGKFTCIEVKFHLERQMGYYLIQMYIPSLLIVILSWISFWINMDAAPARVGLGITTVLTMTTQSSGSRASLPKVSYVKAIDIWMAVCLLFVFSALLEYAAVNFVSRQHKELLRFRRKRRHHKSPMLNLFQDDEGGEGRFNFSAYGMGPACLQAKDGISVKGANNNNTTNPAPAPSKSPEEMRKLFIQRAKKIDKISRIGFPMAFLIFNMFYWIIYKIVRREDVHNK
- experimental-parameters: read-out: EC50 of agonist
attribute-measured: EC50
Returns: string containing the number followed by the unit.

Req: Please report the recorded EC50 for NCC(=O)O [glycine, reference compound] .
Resp: 104 µM

* * *

- target: chimeric α1α2 GlyR (Rattus norvegicus, UniProt P07727+P22771, F345L/G282A/I268V/L342F/S324A)
- Construct: Relevance of the ECD for the subunit-specific actions of gelsemine on α1GlyRs
- Sequence (P07727+P22771 fused with the stated changes): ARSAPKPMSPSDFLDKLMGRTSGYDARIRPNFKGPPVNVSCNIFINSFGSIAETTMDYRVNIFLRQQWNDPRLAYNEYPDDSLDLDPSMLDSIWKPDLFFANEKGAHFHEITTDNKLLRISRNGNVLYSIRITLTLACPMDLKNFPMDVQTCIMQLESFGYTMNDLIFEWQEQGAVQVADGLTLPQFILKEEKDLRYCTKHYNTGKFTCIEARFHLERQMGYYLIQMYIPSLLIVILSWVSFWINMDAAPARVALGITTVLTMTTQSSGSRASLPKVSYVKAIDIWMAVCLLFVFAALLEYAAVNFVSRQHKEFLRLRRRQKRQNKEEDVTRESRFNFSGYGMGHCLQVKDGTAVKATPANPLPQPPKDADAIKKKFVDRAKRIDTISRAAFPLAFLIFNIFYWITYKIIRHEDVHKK
- experimental-parameters: read-out: EC50 of agonist
attribute-measured: EC50
Returns: string containing the number followed by the unit.

Req: Please report the recorded EC50 for NCC(=O)O [glycine, reference compound] .
Resp: 55 µM

* * *

- target: α2β GlyR (Rattus norvegicus, UniProt P20781+P22771)
- Construct: The cells were transfected with plasmids encoding the following proteins
- assay-notes: cell-based
attribute-measured: pIC50
On this scale, pIC50 is minus log10 of a concentration expressed in M (mol/L).

Req: Please report the recorded pIC50 for C=C[C@@]12CN(C)[C@H]3C[C@]14C(=Nc1ccccc14)[C@H]1C[C@@H]2[C@@H]3CO1 .
Resp: 4.63

* * *

- target: α1β GlyR (Rattus norvegicus, UniProt P07727+P20781)
- Construct: The cells were transfected with plasmids encoding the following proteins
- Sequence (P07727 29-457): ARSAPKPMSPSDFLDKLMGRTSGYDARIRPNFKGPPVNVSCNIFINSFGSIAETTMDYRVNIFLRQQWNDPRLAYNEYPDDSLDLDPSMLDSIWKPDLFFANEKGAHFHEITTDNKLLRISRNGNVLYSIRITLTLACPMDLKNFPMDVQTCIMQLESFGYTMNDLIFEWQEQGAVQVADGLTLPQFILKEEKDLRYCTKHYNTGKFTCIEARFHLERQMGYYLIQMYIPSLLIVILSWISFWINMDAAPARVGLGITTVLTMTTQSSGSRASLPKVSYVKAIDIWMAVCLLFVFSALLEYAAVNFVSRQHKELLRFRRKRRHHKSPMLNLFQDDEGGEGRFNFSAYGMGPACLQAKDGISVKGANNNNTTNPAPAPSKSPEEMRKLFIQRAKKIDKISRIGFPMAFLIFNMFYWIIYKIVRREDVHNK
- Sequence (P20781 23-496): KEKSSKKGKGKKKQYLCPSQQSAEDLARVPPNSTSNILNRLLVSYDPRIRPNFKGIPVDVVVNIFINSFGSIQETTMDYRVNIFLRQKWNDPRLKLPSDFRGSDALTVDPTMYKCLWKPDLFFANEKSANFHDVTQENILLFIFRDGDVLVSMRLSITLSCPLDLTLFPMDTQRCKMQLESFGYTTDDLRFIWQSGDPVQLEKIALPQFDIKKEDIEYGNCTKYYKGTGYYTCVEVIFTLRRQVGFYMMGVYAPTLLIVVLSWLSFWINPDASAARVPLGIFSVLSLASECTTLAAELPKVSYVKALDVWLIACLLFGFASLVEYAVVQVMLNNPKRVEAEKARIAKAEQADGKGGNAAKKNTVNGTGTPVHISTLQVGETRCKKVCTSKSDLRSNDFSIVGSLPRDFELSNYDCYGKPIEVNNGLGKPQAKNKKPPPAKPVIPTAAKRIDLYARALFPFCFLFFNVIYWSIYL
- assay-notes: cell-based
attribute-measured: IC50 (µM)
Answer format: numeric, µM implied, no suffix.

Req: Please report the recorded IC50 for C=C[C@@]12CN(C)[C@H]3C[C@]14C(=Nc1ccccc14)[C@H]1C[C@@H]2[C@@H]3CO1 .
Resp: 32.5

* * *

- target: α2β GlyR (Rattus norvegicus, UniProt P20781+P22771)
- Construct: The cells were transfected with plasmids encoding the following proteins
- assay-notes: cell-based
- experimental-parameters: read-out: EC50 of agonist
attribute-measured: EC50 (µM)
Answer format: numeric, µM implied, no suffix.

Req: Please report the recorded EC50 for NCC(=O)O [glycine, reference compound] .
Resp: 105

* * *

- target: α2 GlyR (Rattus norvegicus)
- Construct: The cells were transfected with plasmids encoding the following proteins
- Sequence (P22771 28-452): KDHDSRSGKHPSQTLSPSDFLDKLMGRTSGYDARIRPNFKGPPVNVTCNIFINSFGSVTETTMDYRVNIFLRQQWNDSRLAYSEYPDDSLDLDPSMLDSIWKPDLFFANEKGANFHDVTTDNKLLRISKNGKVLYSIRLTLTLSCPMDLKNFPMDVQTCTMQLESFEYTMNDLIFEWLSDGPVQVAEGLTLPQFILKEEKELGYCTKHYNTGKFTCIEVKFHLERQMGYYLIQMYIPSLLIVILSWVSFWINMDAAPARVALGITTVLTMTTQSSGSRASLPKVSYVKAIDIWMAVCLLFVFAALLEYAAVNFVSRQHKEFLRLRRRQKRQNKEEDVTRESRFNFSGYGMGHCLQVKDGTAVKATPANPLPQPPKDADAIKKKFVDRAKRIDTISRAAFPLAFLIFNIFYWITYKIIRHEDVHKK
- assay-notes: cell-based
- experimental-parameters: read-out: EC50 of agonist
attribute-measured: EC50
Returns: string containing the number followed by the unit.

Req: Please report the recorded EC50 for NCC(=O)O [glycine, reference compound] .
Resp: 91 µM

* * *

- target: α3 GlyR (Rattus norvegicus, UniProt P24524)
- assay-notes: cell-based
attribute-measured: pIC50
On this scale, pIC50 is minus log10 of a concentration expressed in M (mol/L).

Req: State its pIC50 on α3 GlyR (Rattus norvegicus, UniProt P24524): C=C[C@@]12CN(C)[C@H]3C[C@]14C(=Nc1ccccc14)[C@H]1C[C@@H]2[C@@H]3CO1 [koumine]
Resp: 4.80

* * *

- target: α3 GlyR (Rattus norvegicus, UniProt P24524)
- Sequence (P24524 34-464): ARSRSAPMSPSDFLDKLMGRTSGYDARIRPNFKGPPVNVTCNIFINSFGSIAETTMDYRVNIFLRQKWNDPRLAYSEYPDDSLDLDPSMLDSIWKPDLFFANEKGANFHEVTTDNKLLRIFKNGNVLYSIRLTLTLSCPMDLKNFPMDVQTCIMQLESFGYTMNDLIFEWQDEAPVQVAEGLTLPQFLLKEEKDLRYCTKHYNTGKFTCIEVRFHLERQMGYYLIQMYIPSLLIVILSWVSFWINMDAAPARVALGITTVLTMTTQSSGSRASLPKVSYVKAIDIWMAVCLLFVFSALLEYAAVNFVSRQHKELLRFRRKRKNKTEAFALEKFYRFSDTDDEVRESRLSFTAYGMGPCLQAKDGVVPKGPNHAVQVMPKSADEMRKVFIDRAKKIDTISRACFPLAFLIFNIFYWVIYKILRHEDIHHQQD
- assay-notes: cell-based
- experimental-parameters: read-out: EC50 of agonist
- Text: The cells were transfected with plasmids encoding the following proteins: (i). rat GlyR α (1, 2, 3) subunits alone or combined with rat β subunits (Uniprot Accession Numbers: Q546L7, P22771, P20236, P20781); and (ii). rat GABAAR α1 combined with rat β2 and γ2 subunits (Uniprot Accession Numbers: P62813, P63138, P18508). The EGFP expression was used as a marker of successful protein expression. […]
attribute-measured: pEC50
On this scale, pEC50 is minus log10 of a concentration expressed in M (mol/L).

Req: State its pEC50 on α3 GlyR (Rattus norvegicus, UniProt P24524): NCC(=O)O [glycine, reference compound]
Resp: 3.82
